The reported measurements were obtained from patent US20070122843A1.

- TESTED ON: Akt1/PKBα, active enzyme (Homo sapiens)
- Construct: purchased Upstate Biotechnology 14-276
- Sequence (P31749 whole entry): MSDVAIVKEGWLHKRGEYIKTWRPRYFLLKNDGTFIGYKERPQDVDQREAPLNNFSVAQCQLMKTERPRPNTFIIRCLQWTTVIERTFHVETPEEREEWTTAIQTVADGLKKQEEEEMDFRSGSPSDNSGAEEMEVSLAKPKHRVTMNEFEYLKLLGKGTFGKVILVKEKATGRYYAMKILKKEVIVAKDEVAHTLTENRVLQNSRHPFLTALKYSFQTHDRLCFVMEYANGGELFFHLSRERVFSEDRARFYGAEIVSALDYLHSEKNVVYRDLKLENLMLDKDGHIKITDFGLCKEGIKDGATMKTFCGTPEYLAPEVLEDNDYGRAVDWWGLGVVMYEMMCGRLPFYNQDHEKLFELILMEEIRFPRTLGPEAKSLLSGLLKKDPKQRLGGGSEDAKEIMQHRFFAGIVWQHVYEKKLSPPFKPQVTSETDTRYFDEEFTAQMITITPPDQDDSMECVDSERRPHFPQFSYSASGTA
- PROTOCOL TEXT: Fluorescence polarization Akt kinase assay
- Assay type: biochemical
- PROTOCOL CONDITIONS: read-out: Akt kinase activity IC50
PROPERTY NAME: IC50 (nM)
Give your result in nM as a bare value.

Using the record for NC1=[S+][Cu-2]([Cl])([Cl])[N+](=Cc2coc3ccccc3c2=O)N1 , report its IC50. 100

---

- Tested on: BT20
- PROTOCOL TEXT: MTT cell viability / proliferation assay, BT20
- Assay type: cell-based
- PROTOCOL CONDITIONS: read-out: concentration for 50% cell kill, BT20 cells
- Experimental: More specifically, the tumor cell lines MCF-7, MDA-MB 231 and COLO 357 were maintained in Dulbecco's modifed Eagle's medium (DMEM) with phenol red. […] The cell lines were cultured in a humidified incubator in an atmosphere of 5% CO2 and were maintained in continuous exponential growth by twice a week passage. […] Cell proliferation was evaluated after 72 h by means of MTT assay. […]
PROPERTY NAME: pIC50
Scale for pIC50: -log10 of concentration given in mol/L; no unit attached.

Dear colleague, I am looking for the recorded pIC50 of the following molecule: NC1=[S+][Cu-2]([Cl])([Cl])[N+](=Cc2coc3ccccc3c2=O)N1 5.15

---

- TESTED ON: Akt1/PKBα, active enzyme (Homo sapiens)
- Construct: purchased Upstate Biotechnology 14-276
- PROTOCOL TEXT: Fluorescence polarization Akt kinase assay
- Assay type: biochemical
- PROTOCOL CONDITIONS: Table 2; read-out: Fluorescence Polarization Akt kinase Assay IC50
pIC50: −log10 of the molar value.
PROPERTY NAME: pIC50

Given the compound O=c1c(-c2ccc(O)cc2)coc2cc(O)cc(O)c12 [Genistein, 4,5,7,-trihydroxyisoflavone, reference compound] , what is its reported pIC50? < 4.15

---

- System: BxPC3
- PROTOCOL TEXT: MTT cell viability / proliferation assay, BxPC3
- Format: cell-based
- PROTOCOL CONDITIONS: Homo sapiens, BXPC-3; Table 2; read-out: MTT Cell Proliferation Assay IC50 BxPC3
PROPERTY NAME: IC50 (µM)
# unit: µM | format: bare number

Param item = O=c1c(-c2ccc(O)cc2)coc2cc(O)cc(O)c12 [Genistein, 4,5,7,-trihydroxyisoflavone, reference compound] ; retrieve measured IC50. 30

---

- Test system: BxPC3
- PROTOCOL TEXT: MTT cell viability / proliferation assay, BxPC3
- Format: cell-based
- PROTOCOL CONDITIONS: Homo sapiens, BXPC-3; 72 h; Table 1; read-out: MTT cell viability assay IC50 BxPC3
PROPERTY NAME: IC50 (µM)
Answer with a number only, understood to be in µM.

Need IC50 of CC(=O)C1CCC2C3CCC4=CC(=NNC(N)=S)CCC4(C)C3CCC12C (stereo not shown) [FPA-101] , thanks. 5
